Reference for the values: patent US7470715B2

Target: ligand binding domain of the estrogen receptor alpha chain (ERαLBD) (Homo sapiens)
Construct: expressed in transfected cells; host or cells: Huh-7 human hepatoma cells, transient transfection with FuGENE 6
Sequence (P03372 311-547 limits assumed): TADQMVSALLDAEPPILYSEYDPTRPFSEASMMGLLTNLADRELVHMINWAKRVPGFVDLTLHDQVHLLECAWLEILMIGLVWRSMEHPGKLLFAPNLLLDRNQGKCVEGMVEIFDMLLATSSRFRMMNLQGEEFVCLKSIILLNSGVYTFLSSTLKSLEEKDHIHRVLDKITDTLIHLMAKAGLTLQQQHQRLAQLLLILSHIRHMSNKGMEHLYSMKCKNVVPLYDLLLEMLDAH
Assay: ER agonist cell assay (ERα), Huh-7 co-transfection, luciferase
Format: cell-based
Details: Huh-7 cells co-transfected with pG5luc and ERαLBD; overnight incubation; luciferase
Below: a set of entries, each annotated with reported pEC50.
// returns pEC50 (minus log10 of molar concentration), number only

The cases that follow already have their pEC50 on record.
compound | recordedValue
Oc1ccc(-c2noc(C3(c4nnc(-c5ccc(O)cc5O)o4)CC3)c2-c2ccccc2)cc1 | 7.60
Oc1ccc(-c2noc(C3(c4nnc(-c5ccccc5O)o4)CC3)c2-c2ccccc2)cc1 | 7.15
COCCOC(=O)C1(c2onc(-c3ccc(O)cc3)c2-c2ccccc2)CC1 | 7.53

Form field: reported pEC50 of O=C(OC1CCCC1)C1(c2onc(-c3ccc(O)cc3)c2-c2ccccc2)CC1
7.52

And what about the compound CC(O)C1(c2onc(-c3ccc(O)cc3)c2-c2ccccc2)CC1 (racemic) ?
7.32

----------
Target: ligand binding domain of the estrogen receptor alpha chain (ERαLBD) (Homo sapiens, UniProt P03372)
Sequence (P03372 311-547 limits assumed): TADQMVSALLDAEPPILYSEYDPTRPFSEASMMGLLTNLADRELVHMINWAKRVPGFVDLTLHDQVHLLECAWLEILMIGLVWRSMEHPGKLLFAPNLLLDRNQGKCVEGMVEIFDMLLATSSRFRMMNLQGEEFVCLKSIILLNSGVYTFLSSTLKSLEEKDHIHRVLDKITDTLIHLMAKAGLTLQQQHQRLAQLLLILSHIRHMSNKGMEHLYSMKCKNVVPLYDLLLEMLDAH
Test: ER agonist cell assay (ERα), Huh-7 co-transfection, luciferase
Settings: Huh-7 cells co-transfected with pG5luc and ERαLBD; overnight incubation; luciferase
readout: EC50

compound | recordedValue
CSCC1(c2onc(-c3ccc(O)cc3)c2-c2ccccc2)CC1 | 1130 nM
COCOCC1(c2onc(-c3ccc(O)cc3)c2-c2ccccc2)CC1 | 17.7 nM
CC[C@@H](NCC1(c2onc(-c3ccc(O)cc3)c2-c2ccccc2)CC1)c1ccccc1 | 66 nM
Oc1ccc(-c2noc(C3(C(O)C4CC4)CC3)c2-c2ccccc2)cc1 (racemic) | 43 nM
CC(=O)C1(c2onc(-c3ccc(O)cc3)c2-c2ccccc2)CC1 | 122 nM
CCC(NCC1(c2onc(-c3ccc(O)cc3)c2-c2ccccc2)CC1)c1ccccc1 (racemic) | 26.5 nM
CCCC(O)C1(c2onc(-c3ccc(O)cc3)c2-c2ccccc2)CC1 (racemic) | 24.3 nM

--- query ---
Form field: reported EC50 of Cl.Oc1ccc(-c2noc(C3(CN4CCSCC4)CC3)c2-c2ccccc2)cc1 [Example 32, hydrochloride salt]
22.9 nM

----------
Below: a set of entries, each annotated with reported melting point.

The cases that follow already have their melting point on record.
compound | melting point
CC(O)C1(c2onc(-c3ccc(O)cc3)c2-c2ccccc2)CC1 (racemic) | 196 to 197 °C
CCOc1ccccc1OCC1(c2onc(-c3ccc(O)cc3)c2-c2ccccc2)CC1 | 148 to 149 °C
CCC(O)C1(c2onc(-c3ccc(O)cc3)c2-c2ccccc2)CC1 (racemic) | 175 to 176 °C
Cl.Oc1ccc(-c2noc(C3(CN4CCCNCC4)CC3)c2-c2ccccc2)cc1 | 193 to 194 °C

--- query ---
Form field: reported melting point of CC(C)COC(=O)C1(c2onc(-c3ccc(O)cc3)c2-c2ccccc2)CC1
109 to 110 °C

----------
biological target: ligand binding domain of the estrogen receptor alpha chain (ERαLBD) (Homo sapiens, UniProt P03372); construct: expressed in transfected cells; host or cells: Huh-7 human hepatoma cells, transient transfection with FuGENE 6; assay: ER agonist cell assay (ERα), Huh-7 co-transfection, luciferase; type: cell-based; conditions: percent of the maximum estradiol fold change; Huh-7, pG5luc and ERαLBD
Tag: T if measured ERα % of Max E2 Response is not below 60%, F if it is.

Recorded results for 2 molecules are shown here.
molecule | groupLabel
CC(C)C(O)C1(c2onc(-c3ccc(O)cc3)c2-c2ccccc2)CC1 (racemic) [Example 17] | F
COc1cccc(F)c1OCC1(c2onc(-c3ccc(O)cc3)c2-c2ccccc2)CC1 [Example 7] | F

Threshold query (ERα % of Max E2 Response >= 60%) on O=C(OCC1(c2onc(-c3ccc(O)cc3)c2-c2ccccc2)CC1)C1CC1 [Example 51]
T

And what about the molecule CCOc1ncccc1OCC1(c2onc(-c3ccc(O)cc3)c2-c2ccccc2)CC1 [Example 6] ?
F

And what about the molecule CC(C)(O)C1(c2onc(-c3ccc(O)cc3)c2-c2ccccc2)CC1 [Example 49] ?
T

And what about the molecule CCC(O)(CC)C1(c2onc(-c3ccc(O)cc3)c2-c2ccccc2)CC1 [Example 50] ?
T

And what about the molecule N#CCC1(c2onc(-c3ccc(O)cc3)c2-c2ccccc2)CC1 [Example 42] ?
F

And what about the molecule CC(C)OCC1(c2onc(-c3ccc(O)cc3)c2-c2ccccc2)CC1 [Example 3] ?
F

And what about the molecule Cl.Oc1ccc(-c2noc(C3(CN4CCSCC4)CC3)c2-c2ccccc2)cc1 [Example 32] ?
F

----------
biological target: ligand binding domain of the estrogen receptor alpha chain (ERαLBD) (Homo sapiens); construct: expressed in transfected cells; host or cells: Huh-7 human hepatoma cells, transient transfection with FuGENE 6; assay: ER agonist cell assay (ERα), Huh-7 co-transfection, luciferase; format: cell-based; details: percent of the maximum estradiol fold change; Huh-7, pG5luc and ERαLBD
readout: ERα % of Max E2 Response (%)
Quick note: give the figure in %, leave out the unit.

The cases that follow already have their ERα % of Max E2 Response on record.
compound | unitTag | ERα % of Max E2 Response
COc1ccc(-c2nnc(C3(c4onc(-c5ccc(O)cc5)c4-c4ccccc4)CC3)o2)cc1 [Example 129] | % | 19.1
COc1cccc(-c2nnc(C3(c4onc(-c5ccc(O)cc5)c4-c4ccccc4)CC3)o2)c1 [Example 123] | % | 35.9

State its ERα % of Max E2 Response on ligand binding domain of the estrogen receptor alpha chain (ERαLBD) (Homo sapiens): O=C(OCc1ccccc1)C1(c2onc(-c3ccc(O)cc3)c2-c2ccccc2)CC1 [Example 92]
19.7

And what about the compound CC(=O)OCC1(c2onc(-c3ccc(O)cc3)c2-c2ccccc2)CC1 [Example 54] ?
60.4

And what about the compound CC(C)C(C)NCC1(c2onc(-c3ccc(O)cc3)c2-c2ccccc2)CC1 (racemic) [Example 24] ?
30.9

And what about the compound CCCOCC1(c2onc(-c3ccc(O)cc3)c2-c2ccccc2)CC1 [Example 9] ?
40.2

And what about the compound Oc1ccc(-c2noc(C3(CSc4ccccc4)CC3)c2-c2ccccc2)cc1 [Example 40] ?
39.5

And what about the compound Oc1ccc(-c2noc(C3(C(O)(C4CC4)C4CC4)CC3)c2-c2ccccc2)cc1 [Example 99] ?
45.3

And what about the compound Oc1ccc(-c2noc(C3(c4nnc(-c5cccc(O)c5)o4)CC3)c2-c2ccccc2)cc1 [Example 125] ?
22.1

----------
Biological target: ligand binding domain of the estrogen receptor beta chain (ERβLBD) that contained a point mutation at amino acid residue 418 (pm418) (Homo sapiens, UniProt Q92731)
Assay: ER agonist cell assay (ERβ), Huh-7 co-transfection, luciferase
Settings: Huh-7 cells co-transfected with pG5luc and ERβLBD(pm418); overnight incubation; luciferase
Experimental: The compounds ability to mimic the effects of estrogen on the estrogen receptor were determined in a whole cell assay as described immediately below. Experimental Procedure for ER Agonist Cell Assay […] Cells transfected 24 hrs earlier were harvested, counted, and seeded in wells containing compound at a density of 1×10^4 cells/well. […] Plates were incubated at room temperature for 20 minutes and firefly luminescence was measured on a luminometer. […]
readout: pEC50
// returns pEC50 (minus log10 of molar concentration), number only

compound | pEC50
OCC1(c2onc(-c3ccc(O)c(F)c3)c2-c2ccccc2)CC1 | 6.10

Form field: reported pEC50 of Cc1noc(C)c1C(=O)OCC1(c2onc(-c3ccc(O)cc3)c2-c2ccccc2)CC1
7.51

And what about the compound CSCC1(c2onc(-c3ccc(O)cc3)c2-c2ccccc2)CC1 ?
6.13

And what about the compound COCOCC1(c2onc(-c3ccc(O)cc3)c2-c2ccccc2)CC1 ?
6.71

And what about the compound CC(C)C(O)C1(c2onc(-c3ccc(O)cc3)c2-c2ccccc2)CC1 (racemic) ?
6.90

And what about the compound CCC(=O)OCC1(c2onc(-c3ccc(O)cc3)c2-c2ccccc2)CC1 ?
6.86
